# Test system: HCC1937
# Experimental protocol: normalised response (% of control), CellTiter-Glo; higher = more viable cells (100 = DMSO, 0 = benzethonium chloride kill control)
# Reported conditions: incubation time: 72 h
Assay endpoint: normalised response (%)
One number for each entry, in %.

Example entries and their recorded answers appear below.
- O=C(/C=C/c1cccnc1)NCCCCC1CCN(C(=O)c2ccccc2)CC1 [Daporinad] (100 nM): 21.3
- C=CC(=O)N1CCC[C@@H](n2nc(-c3ccc(Oc4ccccc4)cc3)c3c(N)ncnc32)C1 [Ibrutinib] (100 nM): 97.6

Next item in the queue.
[Q] Query: normalised response; subject: CC1=C(/C=C/C(C)=C/C=C/C(C)=C/C(=O)O)C(C)(C)CCC1 [Tretinoin] (10 nM)
[A] 98

----------
# Test system: CAL-51
# Experimental protocol: normalised response (% of control), CellTox Green; higher = less cell death (100 = DMSO, 0 = benzethonium chloride kill control)
# Reported conditions: incubation time: 72 h
Consider the following compounds; for each one, report its normalised response.
Numbers only, in %.

* O=C(O)CCCCC(CCSCc1ccccc1)SCc1ccccc1 (stereo unspecified) [CPI-613] (1000 nM) | 111
* N#Cc1ccc(C(c2ccc(C#N)cc2)n2cncn2)cc1 [Letrozole] (100 nM) | 103
* COc1cc([C@@H]2c3cc4c(cc3[C@@H](O[C@@H]3O[C@@H]5CO[C@@H](c6cccs6)O[C@H]5[C@H](O)[C@H]3O)[C@H]3COC(=O)[C@H]23)OCO4)cc(OC)c1O [Teniposide] (100 nM) | 74.2

Working through the 6 compounds below one at a time, give normalised response for each.
1. C[C@H]1C[C@@H]2[C@H]([C@@H](O)C[C@@]3(C)[C@H]2CC[C@]3(O)C(=O)CO)[C@@]2(C)C=CC(=O)C=C12 [Methylprednisolone] (10000 nM)
2. C=CCc1cccc(/C=N/NC(=O)CN2CCN(Cc3ccccc3)CC2)c1O [PAC-1] (10000 nM)
3. Cc1cnc(NC(=O)Nc2cc(Br)c(C)cc2OC[C@@H]2CNCCO2)cn1 [Rabusertib] (10 nM)
4. CCN(CC)CCCC(C)Nc1c2ccc(Cl)cc2nc2ccc(OC)cc12 (stereo unspecified) [Mepacrine] (500 nM)
5. CNC(=O)c1cc(Oc2ccc(NC(=O)Nc3cc(C(C)(C)C)nn3-c3ccc4ncccc4c3)c(F)c2)ccn1 [Rebastinib] (10 nM)
6. CC[C@@H]1C(=O)N(C)c2cnc(Nc3ccc(C(=O)NC4CCN(C)CC4)cc3OC)nc2N1C1CCCC1 [BI 2536] (10 nM)

[A]
[119, 68.6, 106, 66.9, 101, 51.3]

Working through the 6 compounds below one at a time, give normalised response for each.
1. Oc1ncc(N(CCCl)CCCl)c(O)n1 [Uracil mustard] (100 nM)
2. O=C(Cc1ccc(-c2ccc(OCCN3CCOCC3)cc2)cn1)NCc1ccccc1 [KX2-391] (100 nM)
3. Nc1ccccc1NC(=O)c1ccc(CNC(=O)OCc2cccnc2)cc1 [Entinostat] (1000 nM)
4. O=C(O)CCCCC(CCSCc1ccccc1)SCc1ccccc1 (stereo unspecified) [CPI-613] (100 nM)
5. CCCCC(=O)OCC(=O)[C@]1(O)Cc2c(O)c3c(c(O)c2[C@@H](O[C@H]2C[C@H](NC(=O)C(F)(F)F)[C@H](O)[C@H](C)O2)C1)C(=O)c1c(OC)cccc1C3=O [Valrubicin] (5000 nM)
6. Nc1ncn([C@H]2C[C@H](O)[C@@H](CO)O2)c(=O)n1 [Decitabine] (100 nM)

[A]
1. 109
2. 35.6
3. 70.2
4. 75.1
5. 106
6. 76

[Q] Query: normalised response; subject: Nc1ccccc1NC(=O)c1ccc(CNC(=O)OCc2cccnc2)cc1 [Entinostat] (100 nM)
[A] 101

----------
Consider the following molecules; for each one, report its normalised response.
# Test system: CAL-120
# Experimental protocol: normalised response (% of control), CellTiter-Glo; higher = more viable cells (100 = DMSO, 0 = benzethonium chloride kill control)
# Reported conditions: incubation time: 72 h
Answers are plain numbers, in %.

- CCc1cncnc1N1CCN(Cc2nc3ccc(C(F)(F)F)cc3[nH]2)CC1 (10000 nM): 89
- CC[C@H](Nc1ncnc2[nH]cnc12)c1nc2cccc(F)c2c(=O)n1-c1ccccc1 [GS-1101] (10000 nM): 77.8
- CCN(CC)CCCC(C)Nc1c2ccc(Cl)cc2nc2ccc(OC)cc12 (configuration not stated) [Mepacrine] (50000 nM): 106
- CC1=C(/C=C/C(C)=C/C=C/C(C)=C/C(=O)O)C(C)(C)CCC1 [Tretinoin] (10000 nM): 98.2
- Nc1nc(F)nc2c1ncn2[C@@H]1O[C@H](CO)[C@@H](O)[C@@H]1O [Fludarabine] (10000 nM): 86.1

Working through the 2 molecules below one at a time, give normalised response for each.
1. Nc1ccccc1NC(=O)c1ccc(CNC(=O)OCc2cccnc2)cc1 [Entinostat] (10000 nM)
2. N#Cc1ccc(C(c2ccc(C#N)cc2)n2cncn2)cc1 [Letrozole] (10000 nM)

[A]
1: 73.2; 2: 98.8

----------
# Test system: MFM-223
# Experimental protocol: normalised response (% of control), CellTiter-Glo; higher = more viable cells (100 = DMSO, 0 = benzethonium chloride kill control)
# Reported conditions: incubation time: 72 h
Consider the following molecules; for each one, report its normalised response.
Answers are plain numbers, in %.

- CC[C@H](Nc1ncnc2[nH]cnc12)c1nc2cccc(F)c2c(=O)n1-c1ccccc1 [GS-1101] (10 nM): 87.8
- COc1cc2c(Oc3ccc4[nH]c(C)cc4c3F)ncnc2cc1OCCCN1CCCC1 [Cediranib] (100 nM): 97.9
- O=C(O)C1(C(=O)O)CCC1.[NH2-].[NH2-].[Pt+2] [Carboplatin] (1 nM): 98.8
- CCN(CC)CCCC(C)Nc1c2ccc(Cl)cc2nc2ccc(OC)cc12 (stereo not drawn) [Mepacrine] (5000 nM): 92.5
- N#Cc1ccc(C(c2ccc(C#N)cc2)n2cncn2)cc1 [Letrozole] (1 nM): 98.8
- Nc1nc2[nH]cc(CCc3ccc(C(=O)N[C@@H](CCC(=O)O)C(=O)O)cc3)c2c(=O)[nH]1 [Pemetrexed] (10 nM): 94.9

Working through the 2 molecules below one at a time, give normalised response for each.
1. COc1cc2nccc(Oc3ccc(NC(=O)Nc4cc(C)on4)c(Cl)c3)c2cc1OC [Tivozanib] (1000 nM)
2. CCc1cncnc1N1CCN(Cc2nc3ccc(C(F)(F)F)cc3[nH]2)CC1 (1 nM)

[A]
60.3
103

----------
# Test system: MDA-MB-436
# Experimental protocol: normalised viability (% of control), CellTiter-Blue; higher = more viable cells (about 100 = DMSO control)
# Reported conditions: 10000 nM; incubation time: 72 h
Consider the following compounds; for each one, report its normalised viability.
One number for each entry, in %.

Example entries and their recorded answers appear below.
* C1CN1c1nc(N2CC2)nc(N2CC2)n1 [Triethylenemelamine] | 102
* CCCS(=O)(=O)Nc1ccc(F)c(C(=O)c2c[nH]c3ncc(-c4ccc(Cl)cc4)cc23)c1F [Vemurafenib] | 78.1
* O=C(Cc1ccc(-c2ccc(OCCN3CCOCC3)cc2)cn1)NCc1ccccc1 [KX2-391] | 39.2
* C=CC(=O)Nc1cc2c(Nc3ccc(F)c(Cl)c3)ncnc2cc1OCCCN1CCOCC1 [Canertinib] | 10.5

Next item in the queue.
[Q] Query: normalised viability; subject: Cc1ccc(-c2cc(C(F)(F)F)nn2-c2ccc(S(N)(=O)=O)cc2)cc1 [Celecoxib]
[A] 80.1

----------
# Tested on: CAL-51
# Experimental protocol: normalised response (% of control), CellTiter-Glo; higher = more viable cells (100 = DMSO, 0 = benzethonium chloride kill control)
# Reported conditions: incubation time: 72 h
I would appreciate it if you labelled entries met when normalised response is 90% or higher, otherwise not met.

Please review the entries below; each comes with its answer.
- O=C(/C=C/c1cccnc1)NCCCCC1CCN(C(=O)c2ccccc2)CC1 [Daporinad] (10 nM): met
- O=C(O)CCCCC(CCSCc1ccccc1)SCc1ccccc1 (stereo not drawn) [CPI-613] (100 nM): not met
- O=C(O)C1(C(=O)O)CCC1.[NH2-].[NH2-].[Pt+2] [Carboplatin] (100 nM): met
- O=C(O)C(=O)O.[NH-][C@@H]1CCCC[C@H]1[NH-].[Pt+2] [Oxaliplatin] (100 nM): not met
- COc1cc2c(NC3CCN(C(C)C)CC3)nc(C3CCCCC3)nc2cc1OCCCN1CCCC1 [UNC0638] (100 nM): met

Then this molecule:
[Q] Hello, I need to know if Nc1ncn([C@H]2C[C@H](O)[C@@H](CO)O2)c(=O)n1 [Decitabine] (100 nM) has measured normalised response not below 90%. Thanks!
[A] not met
